tested on: OAW-42; assay: cells; type: functional, cell-based, Homo sapiens; settings: Homo sapiens, OAW-42;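 further: growth inhibition of OAW-42 cells, read out with a cell viability assay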
Description: SANGER: Inhibition of human OAW-42 cell growth in a cell viability assay.
Counter-ions that a name gives are not always drawn.
measuredAttribute: IC50

- CC1(C)CNc2cc(NC(=O)c3cccnc3NCc3ccncc3)ccc21 [MOTESANIB]: > 2 µM

Batch: IC50 for all items listed.
1. COC1=CC(c2cc3ccccc3[nH]2)=N/C1=C\c1[nH]c(C)cc1C [OBATOCLAX MESYLATE]
2. CN(C)C(=N)NC(=N)N [METFORMIN]

A:
["0.215 µM", "18100 µM"]

Batch: IC50 for all items listed.
1. O=C(O)c1ccc(-c2c[nH]c3ncc(-c4ccccc4)cc23)cc1C1CCCC1 [GSK-650394]
2. Oc1ccc2ccccc2c1SSc1c(O)ccc2ccccc12
3. COc1cc2c(Nc3ccc(NC(=O)c4ccccc4)cc3)ncnc2cc1OCCCN1CCOCC1

A:
1: > 16 µM; 2: > 32 µM; 3: > 4 µM

Batch: IC50 for all items listed.
1. Nc1cccc2c1CN(C1CCC(=O)NC1=O)C2=O (stereo not drawn) [LENALIDOMIDE]
2. CO[C@H]1C[C@@H]2CC[C@@H](C)[C@@](O)(O2)C(=O)C(=O)N2CCCC[C@H]2C(=O)O[C@H]([C@H](C)C[C@@H]2CC[C@@H](OC(=O)C(C)(CO)CO)[C@H](OC)C2)CC(=O)[C@H](C)/C=C(\C)[C@@H](O)[C@@H](OC)C(=O)[C@H](C)C[C@H](C)/C=C/C=C/C=C/1C [TEMSIROLIMUS]

A:
> 5 µM
> 0.2 µM

* * *

tested on: no-10; test: cells; assay type: functional, cell-based, Homo sapiens; settings: Homo sapiens
Description: SANGER: Inhibition of human no-10 cell growth in a cell viability assay.
pIC50: −log10 of the molar value.
measuredAttribute: pIC50

These recorded examples may help you get a feel for the data.
* CCN(CC)CCCCNc1ncc2cc(-c3cc(OC)cc(OC)c3)c(NC(=O)NC(C)(C)C)nc2n1 [PD-173074] | < 5.70
* CCC/C=C/C=C/C(=O)O[C@H]1/C(=C/C(=O)OC)C[C@H]2C[C@H]([C@@H](C)O)OC(=O)C[C@H](O)C[C@@H]3C[C@H](OC(C)=O)C(C)(C)[C@](O)(C[C@@H]4C/C(=C/C(=O)OC)C[C@H](/C=C/C(C)(C)[C@]1(O)O2)O4)O3 [BRYOSTATIN 1] | < 8.10
* COc1cc2ncn(-c3cc(OCc4ccccc4S(C)(=O)=O)c(C#N)s3)c2cc1OC [GSK-319347A] | < 5.30

Query compound follows.
Q: Need pIC50, item COc1cccc2c1C(=O)c1c(O)c3c(c(O)c1C2=O)C[C@@](O)(C(=O)CO)C[C@@H]3O[C@H]1C[C@H](N)[C@H](O)[C@H](C)O1 [DOXORUBICIN]
A: 6.79

* * *

test system: LC-2-ad; test: cells; format: functional, cell-based, Homo sapiens; details: Homo sapiens, LC-2-ad
Description: SANGER: Inhibition of human LC-2-ad cell growth in a cell viability assay.
For each entry below, report its IC50 value.

These recorded examples may help you get a feel for the data.
* CO[C@H]1C[C@@H]2CC[C@@H](C)[C@@](O)(O2)C(=O)C(=O)N2CCCC[C@H]2C(=O)O[C@H]([C@H](C)C[C@@H]2CC[C@@H](OC(=O)C(C)(CO)CO)[C@H](OC)C2)CC(=O)[C@H](C)/C=C(\C)[C@@H](O)[C@@H](OC)C(=O)[C@H](C)C[C@H](C)/C=C/C=C/C=C/1C | > 0.2 µM
* CCN(CC)CCCCNc1ncc2cc(-c3cc(OC)cc(OC)c3)c(NC(=O)NC(C)(C)C)nc2n1 | > 2 µM
* CC[C@H](CO)Nc1nc(NCc2ccccc2)c2ncn(C(C)C)c2n1 | > 16 µM

Batch: IC50 for all items listed.
1. CS(=O)(=O)c1ccc(C(=O)Nc2ccc(Cl)c(-c3ccccn3)c2)c(Cl)c1
2. N#Cc1c(O)c2c(-c3ccc(-c4ccccc4O)cc3)csc2[nH]c1=O
3. CC1(C)CNc2cc(NC(=O)c3cccnc3NCc3ccncc3)ccc21
4. Oc1ccc2ccccc2c1SSc1c(O)ccc2ccccc12
5. C#Cc1cccc(Nc2ncnc3cc(OCCOC)c(OCCOC)cc23)c1

A:
["> 10 µM", "> 1.02 µM", "> 2 µM", "24.1 µM", "> 2 µM"]

Batch: IC50 for all items listed.
1. COc1cc(-c2nn([C@H]3CC[C@H](N4CCN(C(C)=O)CC4)CC3)c3ncnc(N)c23)ccc1NC(=O)c1cc2ccccc2n1C
2. Cc1cc([N+](=O)[O-])ccc1NS(=O)(=O)c1cc(Cl)ccc1Cl
3. COc1cccc2c1C(=O)c1c(O)c3c(c(O)c1C2=O)C[C@@](O)(C(=O)CO)C[C@@H]3O[C@H]1C[C@H](N)[C@H](O)[C@H](C)O1

A:
1. 0.483 µM
2. 4.63 µM
3. 0.00507 µM
